// data source = ChEMBL document CHEMBL1795202

Test: Toxicity against uninfected BHK cells assessed as growth inhibition incubated at 37 degC for 36 hrs by XTT assay
Type: cell-based, Mesocricetus auratus
Conditions: hamster
# GI50 at 36 h per entry
Numeric answer only, unit µM assumed.

Need GI50 at 36 h of COC(=O)c1sc(-c2ccc(Br)cc2)nc1C(Br)Br , thanks.
408

Need GI50 at 36 h of CCCCc1ccc(-c2nc(C)c(C(C)=O)s2)cc1 , thanks.
59.4

Need GI50 at 36 h of CCCCc1ccc(-c2nc(C)c(C(=O)SC)s2)cc1 , thanks.
46.5

Need GI50 at 36 h of CCCc1ccc(-c2nc(C)c(C(=O)OC)s2)cc1 , thanks.
499

Need GI50 at 36 h of COC(=O)c1sc(-c2ccc(C(F)(F)F)cc2)nc1C(Br)Br , thanks.
262

----------
Experiment: Toxicity against uninfected BHK cells assessed as growth inhibition incubated at 37 degC for 36 hrs by XTT assay
Format: cell-based, Mesocricetus auratus
Conditions: hamster
VALUE TYPE: GI50 at 36 h (µM)
Numeric answer only, unit µM assumed.

| STRUCTURE AS SMILES | GI50 at 36 h, µM |
| --- | --- |
| Nc1ccccc1SCc1csc(-c2ccc(Cl)cc2)n1 | 61 |
| COC(=O)c1sc(-c2cccc(Br)c2)nc1C(Br)Br | 26.5 |
| CCCCCc1ccc(-c2nc(C)c(C(=O)OC)s2)cc1 | 41.5 |

Need GI50 at 36 h of CCCCc1ccc(-c2nc(C)c(C(=O)O)s2)cc1 , thanks.
366

Need GI50 at 36 h of CCCCc1ccc(-c2nc(C)c(C(=O)OC)s2)cc1 , thanks.
63.1

Need GI50 at 36 h of CCCCc1ccc(-c2nc(C)c(/C(C)=N/NC(=N)N)s2)cc1 , thanks.
353
